# assay-system: Dual specificity protein kinase CLK3 (Homo sapiens)
# Sequence (P49761 whole entry): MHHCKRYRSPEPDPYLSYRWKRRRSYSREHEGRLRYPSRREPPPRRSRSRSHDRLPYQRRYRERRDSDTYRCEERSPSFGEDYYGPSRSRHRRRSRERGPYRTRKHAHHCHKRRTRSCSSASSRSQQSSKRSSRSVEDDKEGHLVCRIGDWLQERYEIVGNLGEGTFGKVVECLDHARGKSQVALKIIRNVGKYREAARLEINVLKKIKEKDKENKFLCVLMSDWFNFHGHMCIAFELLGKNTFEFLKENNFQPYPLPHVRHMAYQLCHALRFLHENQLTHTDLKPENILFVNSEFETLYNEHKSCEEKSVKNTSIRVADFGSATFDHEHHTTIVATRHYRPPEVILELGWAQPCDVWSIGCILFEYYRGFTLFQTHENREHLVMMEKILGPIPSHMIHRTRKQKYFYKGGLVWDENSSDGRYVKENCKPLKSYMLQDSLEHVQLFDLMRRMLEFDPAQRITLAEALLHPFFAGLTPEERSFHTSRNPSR
Provide the reported IC50 of each item.

# annotated cases, reported IC50 shown
O=C1NC(NC2CCCCC2)=N/C1=C\c1ccc2scnc2c1 : > 10 µM
Cc1ccc(NC2=N/C(=C\c3ccc4ncsc4c3)C(=O)N2)cc1F : > 10 µM
Cn1ccc2cc(/C=C3\N=C(NC4CCCCC4)NC3=O)ccc21 : > 10 µM
Cn1ccc2cc(/C=C3\N=C(NC4CCCCCC4)NC3=O)ccc21 : > 10 µM

# molecule "O=C1NC(Nc2ccc(N3CCOCC3)cc2)=N/C1=C\c1ccc2ncsc2c1" ; its IC50 = > 10 µM

* * *

# assay-system: Cyclin-dependent kinase 5/CDK5 activator 1 (Homo sapiens)
# Sequence (Q00535 whole entry): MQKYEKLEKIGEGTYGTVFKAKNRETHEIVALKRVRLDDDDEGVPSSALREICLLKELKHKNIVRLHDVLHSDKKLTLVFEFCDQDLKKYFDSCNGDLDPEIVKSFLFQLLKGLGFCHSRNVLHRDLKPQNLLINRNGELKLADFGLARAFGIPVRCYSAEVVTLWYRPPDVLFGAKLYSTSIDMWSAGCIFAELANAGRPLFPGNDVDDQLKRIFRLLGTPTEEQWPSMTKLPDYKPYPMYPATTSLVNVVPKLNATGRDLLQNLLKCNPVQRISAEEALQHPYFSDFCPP
# Sequence (Q15078 whole entry, further chain): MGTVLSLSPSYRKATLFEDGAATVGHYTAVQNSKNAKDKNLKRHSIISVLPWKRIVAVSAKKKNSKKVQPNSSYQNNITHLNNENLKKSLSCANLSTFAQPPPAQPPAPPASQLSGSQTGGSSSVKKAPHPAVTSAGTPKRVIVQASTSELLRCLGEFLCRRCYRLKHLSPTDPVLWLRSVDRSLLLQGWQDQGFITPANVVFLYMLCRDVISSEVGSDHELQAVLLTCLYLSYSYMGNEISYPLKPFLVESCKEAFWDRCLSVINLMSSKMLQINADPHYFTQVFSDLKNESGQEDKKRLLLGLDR
assay-endpoint: IC50

Answered examples (10):
Cn1ncc2cc(/C=C3\N=C(NC45CC6CC(CC(C6)C4)C5)NC3=O)ccc21 : > 10 µM
O=C1NC(NC2CC3CCC2C3)=N/C1=C\c1ccc2ncsc2c1 (racemic) : > 10 µM
O=C1NC(NC2CCCCCC2)=N/C1=C\c1ccc2c(c1)OCO2 : > 10 µM
O=C1NC(NC2CCCCC2(F)F)=N/C1=C\c1ccc2ncsc2c1 (racemic) : > 10 µM
COC[C@H](NC1=N/C(=C\c2ccc3ncsc3c2)C(=O)N1)c1ccccc1 : > 10 µM
Cn1cnc2ccc(/C=C3\N=C(NC45CC6CC(CC(C6)C4)C5)NC3=O)cc21 : 0.65 µM
O=C1NC(NC2CCCCC2)=N/C1=C\c1ccc2c(c1)CCO2 : > 10 µM
CCOC[C@@H](CC(C)C)NC1=N/C(=C\c2ccc3ncsc3c2)C(=O)N1 : > 10 µM
Cn1ncc2cc(/C=C3\N=C(NC4CCCCC4)NC3=O)ccc21 : > 10 µM
CC(C)C[C@H](CF)NC1=N/C(=C\c2ccc3ncsc3c2)C(=O)N1 : > 10 µM

Each compound below has a recorded value; state its IC50.
1. CO[C@@H]1Cc2ccccc2[C@H]1NC1=N/C(=C\c2ccc3ncsc3c2)C(=O)N1 (racemic)
2. O=C1NC(N[C@H]2CCOC2)=N/C1=C\c1ccc2ncsc2c1
3. O=C1NC(NC23CC4CC(CC(F)(C4)C2)C3)=N/C1=C\c1ccc2ncsc2c1
4. O=C1NC(N[C@@H]2CCOC2)=N/C1=C\c1ccc2ncsc2c1

a:
1: > 10 µM; 2: > 10 µM; 3: 0.146 µM; 4: > 10 µM
